- Tested on: HEK293T (UBE3A T485A transfected, BAR Wnt reporter)
- test-description: Renilla luciferase signal (cell health) relative to plate median (fold (linear ratio)); higher = higher Renilla signal
- setup-conditions: concentration: 0.01 uM; 24 h
Over roughly 1,100 compounds, “Renilla luciferase signal (cell health) relative to plate median” has its median near 0.97; the highest 2% begin near 1.6. For the sample, the highest values were picked, then their nearest neighbours and some compounds at random.
Documented Renilla luciferase signal across a set of compounds
Write the value as a bare number.

- smiles-representation: "Nc1c(Cl)c(F)nc(OCC(=O)O)c1Cl"
  Renilla luciferase signal: 1.01
- smiles-representation: "CCC(CC)Nc1c([N+](=O)[O-])cc(C)c(C)c1[N+](=O)[O-]"
  Renilla luciferase signal: 0.981
- smiles-representation: "Cc1cc(Cl)ccc1OCC(=O)O"
  Renilla luciferase signal: 1.11

-- ask Can you look up Renilla luciferase signal on HEK293T (UBE3A T485A transfected, BAR Wnt reporter) for O=C(O)COc1ccc(Cl)cc1Cl ?
-- reply 1.31

-- ask # get_value(readout= Renilla luciferase signal, system= HEK293T (UBE3A T485A transfected, BAR Wnt reporter)) for CCOP(=O)(OCC)Oc1nc(Cl)c(Cl)cc1Cl
-- reply 0.952

###

Measured Renilla luciferase signal, listed per entry.
- Tested on: HEK293T (UBE3A T485A transfected, BAR Wnt reporter)
- test-description: Renilla luciferase signal (cell health) relative to plate median (fold (linear ratio)); higher = higher Renilla signal
- setup-conditions: concentration: 100 uM; 24 h
In all, about 1,100 compounds were measured (“Renilla luciferase signal (cell health) relative to plate median”: median about 0.97, highest 2% from about 1.6 on). Shown is part of a subset that was picked to be rich in the highest values.
Just the number.

- compound: "CC1=NNC(=O)N(/N=C/c2cccnc2)C1"
  assay-target: "HEK293T (UBE3A T485A transfected, BAR Wnt reporter)"
  Renilla luciferase signal: 1.45
- compound: "CC(C)(C)OOC(C)(C)C [Di-tert-butyl peroxide]"
  assay-target: "HEK293T (UBE3A T485A transfected, BAR Wnt reporter)"
  Renilla luciferase signal: 1.12

-- ask Could you share what Renilla luciferase signal was measured for ClC(Cl)c1ccccc1 [Benzal chloride] , tested on HEK293T (UBE3A T485A transfected, BAR Wnt reporter)?
-- reply 1.15

-- ask What is its Renilla luciferase signal for HEK293T (UBE3A T485A transfected, BAR Wnt reporter)? Entry: CCC(C)(NC(=O)c1cc(Cl)c(C)c(Cl)c1)C(=O)CCl (stereo unspecified) [Zoxamide]
-- reply 0.0244

-- ask Request - read-out Renilla luciferase signal | tested on HEK293T (UBE3A T485A transfected, BAR Wnt reporter) | compound COC(=O)C(C)Oc1ccc(Oc2ccc(Cl)cc2Cl)cc1 (stereo unspecified)
-- reply 2.15

-- ask Entry NCCO.O=C(O)c1nc(Cl)ccc1Cl , system HEK293T (UBE3A T485A transfected, BAR Wnt reporter): what Renilla luciferase signal was measured?
-- reply 1.53

-- ask // lookup Renilla luciferase signal | system=HEK293T (UBE3A T485A transfected, BAR Wnt reporter) | key= Nc1c(Cl)c(Cl)nc(C(=O)O)c1Cl
-- reply 1.33

-- ask Request - read-out Renilla luciferase signal | tested on HEK293T (UBE3A T485A transfected, BAR Wnt reporter) | compound Clc1cccc(Cl)c1
-- reply 1.26
